assay: protein stability index of a GFP-peptide fusion (yeast GPS) (PSI 1-4); higher = more stable; sorted into four equal gates, so the index is relative within each strain; conditions: ubr1∆
Measure: protein stability index
Just the number.

In: Need protein stability index, item FKSVLPIVLLNTLRKCY [UBP6]
Out: 1.18

In: Need protein stability index, item IQEFLVVIEKRRKKILN [GRR1]
Out: 2.94

In: Need protein stability index, item ALFFDPSLNPIPHFIDN [PRP8]
Out: 2.61

In: Need protein stability index, item ADVKGVCTEAGMYALRE [RPT6]
Out: 1.27

In: Need protein stability index, item GILLETISVPQIRDVME [RRP6]
Out: 2.64

In: Need protein stability index, item NFASGDNNTASNMLGSN [RPB3]
Out: 3.24

In: Need protein stability index, item AGNLITTPEINNFIVER [SRP68]
Out: 2.82

In: Need protein stability index, item SYLISHKDSFYDRATLT [RPO31]
Out: 2.35

In: Need protein stability index, item LEDLKDVYASKVRLNAS [PRP8]
Out: 2.27

In: Need protein stability index, item YLHDNASKVLLKIFLYL [IRR1]
Out: 1.77

In: Need protein stability index, item ERVQSDENKDDELVKLL [SRP68]
Out: 2.96

In: Need protein stability index, item KYKLISRIVEIFALCIY [YML103C/NUP188]
Out: 1.85

In: Need protein stability index, item KEEFSSAENRDEKDYLT [CSE2]
Out: 2.99

In: Need protein stability index, item GGVDVGPSVESYELRNT [SNF5]
Out: 3.28

In: Need protein stability index, item NSNINTLTASPDGTLIA [ASC1]
Out: 2.82

In: Need protein stability index, item VPVKLEEIKTVDPASAP [RRP6]
Out: 2.79

In: Need protein stability index, item SSETDDDHSQVINPQQL [DSN1]
Out: 3.08

In: Need protein stability index, item KETTIEKLSSEIENLDK [YIL149C/MLP2]
Out: 3.15

In: Need protein stability index, item KMNNKPERFMVFQLPTR [RPC53]
Out: 2.83

In: Need protein stability index, item DDVVVLTGEAEIEQPVT [FAS1]
Out: 2.98

In: Need protein stability index, item EDVVAISSRTFGQRAVL [RPS0A]
Out: 3.1

In: Need protein stability index, item LIIDGFKSYATRTVITD [SMC2]
Out: 3.12

In: Need protein stability index, item DTAVKTAETGYIQRRLV [RPO21]
Out: 2.13

src = the supplement of paper PMC9732359
